# Test name: Metabolic stability in human liver microsomes assessed as compound remaining at 1 uM incubated for 1 hr in presence of NADPH by HPLC-MS analysis
# Format: ADME, Microsome
# Condition details: read-out: Stabilty
Endpoint label: remaining at 1 h, 1 µM (%)

INSERT INTO assay_data (smiles_representation, endpoint_label, numeric_readout) VALUES
  ('COc1cccc(CN2CCN(C[C@@]3(O)CC[C@@]4(C)[C@@H](CC[C@@H]5[C@@H]4CC[C@]4(C)C(=O)CC[C@@H]54)C3)CC2)c1', 'remaining at 1 h, 1 µM', 28),
  ('COc1cccc(CN2CCN(C[C@@]3(O)CC[C@@]4(C)[C@@H](CC[C@@H]5[C@@H]4CC[C@]4(C)[C@H](O)CC[C@@H]54)C3)CC2)c1', 'remaining at 1 h, 1 µM', 70.6),
  ('COc1cccc(CN2CCN(C[C@@]3(O)CC[C@@]4(C)[C@@H](CC[C@@H]5[C@@H]4CC[C@]4(C)[C@@H](O)CC[C@@H]54)C3)CC2)c1', 'remaining at 1 h, 1 µM', 67.2),
  ('COc1cccc(CN2CCN(C[C@@]3(O)CC[C@@]4(C)[C@@H](CC[C@@H]5[C@@H]4CC[C@@]4(C)[C@H]5CCC4(F)F)C3)CC2)c1', 'remaining at 1 h, 1 µM', 34.1),
  ('C#C[C@]1(O)CC[C@H]2[C@@H]3CC[C@H]4C[C@@](O)(CN5CCN(Cc6cccc(OC)c6)CC5)CC[C@]4(C)[C@H]3CC[C@@]21C', 'remaining at 1 h, 1 µM', 45.5),
  ('COc1cccc(CN2CCN(C[C@@]3(O)CC[C@@]4(C)[C@@H](CC[C@@H]5[C@@H]4CC[C@@]4(C)[C@H]5CC[C@]4(C)O)C3)CC2)c1', 'remaining at 1 h, 1 µM', 21.8),
  ('COc1cccc(CN2CCN(C[C@@]3(O)CC[C@@]4(C)[C@@H](CC[C@@H]5[C@@H]4CC[C@]4(C)C(=O)C(C)(C)C[C@@H]54)C3)CC2)c1', 'remaining at 1 h, 1 µM', 54.5);
